# System: S. enteritidis Danysz
# EXPERIMENT DESCRIPTION: M.I.C. in vitro, nutrient agar dilution
# Type: cell-based
# PROTOCOL CONDITIONS: Salmonella enterica, 18 h; Table III; S. enteritidis Danysz; read-out: M.I.C.
ASSAY READOUT: MIC

CCn1cc(C(=O)O)c(=O)c2cc(F)c(N3CCNCC3)cc21; 0.2 µg/mL
Cn1cc(C(=O)O)c(=O)c2cc(F)c(N3CCNCC3)cc21; 0.2 µg/mL
CN1CCN(c2cc3c(cc2F)c(=O)c(C(=O)O)cn3C)CC1; 0.4 µg/mL
C=CCn1cc(C(=O)O)c(=O)c2cc(F)c(N3CCN(C)CC3)cc21; 0.4 to 0.8 µg/mL

Below is a list of molecules. For each, state its recorded MIC.
1. C=Cn1cc(C(=O)O)c(=O)c2cc(F)c(N3CCN(C)CC3)cc21
2. C=CCN1CCN(c2cc3c(cc2F)c(=O)c(C(=O)O)cn3CC)CC1
3. C=Cn1cc(C(=O)O)c(=O)c2cc(F)c(N3CCOCC3)cc21

1. 0.1 µg/mL
2. 0.4 µg/mL
3. 1.6 µg/mL

----------
# Tested on: Staph. 9.144
# EXPERIMENT DESCRIPTION: M.I.C. in vitro, nutrient agar dilution
# Assay type: cell-based
# PROTOCOL CONDITIONS: 18 h; Table 2; Staph. 9.144 (Gram positive); read-out: M.I.C.
Please respond with reported MIC for every item in the list.
Give bare numbers, in µg/mL.

CCn1cc(C(=O)O)c(=O)c2cc(Cl)c(N3CCN(Cc4ccccc4)CC3)cc21 [Example 5]; 0.8
CCn1cc(C(=O)O)c(=O)c2cc(Cl)c(N3CCOCC3)cc21 [Example 7]; 0.4

Now look at this one.
Which MIC value is on record for CCn1cc(C(=O)O)c(=O)c2ccc(N3CCN(C)CC3)cc21 [Example T1, reference compound] ?
6.2

----------
Please respond with reported MIC for every item in the list.
# Test system: Salm. typhi 0901
# EXPERIMENT DESCRIPTION: microbe, parasite or virus in culture
# Format: cell-based
# PROTOCOL CONDITIONS: Salmonella enterica, 18 h; Table 2; Salm. typhi 0901 (Gram negative)
Give bare numbers, in µg/mL.

# example entries with known answers
CCn1cc(C(=O)O)c(=O)c2cc(Cl)c(N3CCN(CCO)CC3)cc21; 3.1
CCn1cc(C(=O)O)c(=O)c2cc(Cl)c(N3CCOCC3)cc21; 3.1

Now look at this one.
Which MIC value is on record for CCn1cc(C(=O)O)c(=O)c2ccc(N3CCN(C)CC3)cc21 [Example T1, reference compound] ?
3.1

----------
# System: Salm. typhi 0901
# EXPERIMENT DESCRIPTION: microbe, parasite or virus in culture
# Format: cell-based
# PROTOCOL CONDITIONS: Salmonella enterica, 18 h; Table 2; Salm. typhi 0901 (Gram negative)
# Protocol: After sterilisation at 120° C., the pH was 6.8. The minimum inhibitory concentrations (M.I.C.) were determined by dilution of the test compounds in this mixture, the concentration ranging from 0.05 to 100 μg/cm^3 in a geometric progression with a factor of 2. The inoculation of the dishes was carried out by means of a multiple inoculator with 10^-3 dilutions of 18 hour old broth cultures. The dishes were placed in an oven at 37° C. and the readings were taken afer an incubation time of 18 hours. […]
ASSAY READOUT: MIC (mg/L)
Numbers only, in mg/L.

CCn1cc(C(=O)O)c(=O)c2cc(Cl)c(N3CCNCC3)cc21; 0.2
CCn1cc(C(=O)O)c(=O)c2cc(Cl)c(N3CCN(Cc4ccccc4)CC3)cc21; 6.2

Which MIC value is on record for CCn1cc(C(=O)O)c(=O)c2ccc(N3CCN(CCO)CC3)cc21 [Example T4, reference compound] ?
25

----------
# System: Bord. bronchis. 4.617
# EXPERIMENT DESCRIPTION: M.I.C. in vitro, nutrient agar dilution
# Type: cell-based
# PROTOCOL CONDITIONS: 18 h; Table III; Bord. bronchis. 4.617; read-out: M.I.C.
# Experimental: After sterilisation at 120° C., the pH was 6.8. The minimum inhibitory concentrations (M.I.C.) were determined by dilution of the test compounds in this mixture, the concentration ranging from 0.05 to 100 μg/cm^3 in a geometric progression with a factor of 2. The inoculation of the dishes was carried out by means of a multiple inoculator with 10^-3 dilutions of 18 hour old broth cultures. The dishes were placed in an oven at 37° C. and the readings were taken afer an incubation time of 18 hours. […]
ASSAY READOUT: MIC (µg/mL)
Give bare numbers, in µg/mL.

# example entries with known answers
C=CCN1CCN(c2cc3c(cc2F)c(=O)c(C(=O)O)cn3CC)CC1 [Example 23]; 3.12
C=Cn1cc(C(=O)O)c(=O)c2cc(F)c(N3CCOCC3)cc21 [Example 42]; 12.5
CN1CCN(c2cc3c(cc2F)c(=O)c(C(=O)O)cn3C)CC1 [Example 31]; 6.25

Below is a list of compounds. For each, state its recorded MIC.
1. C=CCn1cc(C(=O)O)c(=O)c2cc(F)c(N3CCN(C)CC3)cc21 [Example 34]
2. Cn1cc(C(=O)O)c(=O)c2cc(F)c(N3CCNCC3)cc21 [Example 32]
3. C=Cn1cc(C(=O)O)c(=O)c2cc(F)c(N3CCN(C)CC3)cc21 [Example 41]

0.2
6.25
1.6

----------
# Test system: B. subtilis
# EXPERIMENT DESCRIPTION: M.I.C. in vitro, nutrient agar dilution
# Type: cell-based
# PROTOCOL CONDITIONS: Bacillus subtilis, 18 h; Table III; B. Subtilis; read-out: M.I.C.
Please respond with reported MIC for every item in the list.
Give bare numbers, in µg/mL.

# example entries with known answers
Cn1cc(C(=O)O)c(=O)c2cc(F)c(N3CCNCC3)cc21 [Example 32]; 0.4
C=Cn1cc(C(=O)O)c(=O)c2cc(F)c(N3CCOCC3)cc21 [Example 42]; 0.2
CN1CCN(c2cc3c(cc2F)c(=O)c(C(=O)O)cn3C)CC1 [Example 31]; 0.8
CCn1cc(C(=O)O)c(=O)c2cc(F)c(N3CCNCC3)cc21 [Example 22]; 0.2
C=Cn1cc(C(=O)O)c(=O)c2cc(F)c(N3CCN(C)CC3)cc21 [Example 41]; 0.1

Which MIC value is on record for C=CCn1cc(C(=O)O)c(=O)c2cc(F)c(N3CCN(C)CC3)cc21 [Example 34] ?
0.4

----------
# Test system: S. oranienburg 1066
# EXPERIMENT DESCRIPTION: M.I.C. in vitro, nutrient agar dilution
# Type: cell-based
# PROTOCOL CONDITIONS: Salmonella enterica, 18 h; Table 2; S. oranienburg 1066 (Gram negative); read-out: M.I.C.
ASSAY READOUT: MIC

CCn1cc(C(=O)O)c(=O)c2cc(Cl)c(N3CCNCC3)cc21; 6.2 to 12.5 µg/mL

Below is a list of molecules. For each, state its recorded MIC.
1. CCn1cc(C(=O)O)c(=O)c2cc(Cl)c(N3CCN(C)CC3)cc21
2. CCn1cc(C(=O)O)c(=O)c2ccc(N3CCN(C)CC3)cc21 [Example T1, reference compound]

12.5 to 25 µg/mL
> 100 µg/mL

----------
# System: Pr. mirabilis Nig
# EXPERIMENT DESCRIPTION: M.I.C. in vitro, nutrient agar dilution
# Assay type: cell-based
# PROTOCOL CONDITIONS: Proteus mirabilis, 18 h; Table 2; Pr. mirabilis Nig (Gram negative); read-out: M.I.C.
ASSAY READOUT: MIC

# example entries with known answers
CCn1cc(C(=O)O)c(=O)c2cc(Cl)c(N3CCNCC3)cc21; 0.2 µg/mL
CCn1cc(C(=O)O)c(=O)c2ccc(N3CCN(CCO)CC3)cc21 [Example T4, reference compound]; 50 µg/mL
CCn1cc(C(=O)O)c(=O)c2cc(Cl)c(N3CCOCC3)cc21; 1.6 µg/mL
CCn1cc(C(=O)O)c(=O)c2ccc(N3CCN(C)CC3)cc21 [Example T1, reference compound]; 3.1 µg/mL

Below is a list of molecules. For each, state its recorded MIC.
1. CCn1cc(C(=O)O)c(=O)c2cc(Cl)c(N3CCN(CCO)CC3)cc21
2. CCn1cc(C(=O)O)c(=O)c2cc(Cl)c(N3CCN(C)CC3)cc21
3. CCn1cc(C(=O)O)c(=O)c2cc(Cl)c(N3CCN(Cc4ccccc4)CC3)cc21

1. 3.1 µg/mL
2. 0.4 to 0.8 µg/mL
3. 6.2 µg/mL
